Consider the following compounds and their measured inhibition readings.
- test_system: Endonuclease 8-like 2 (Homo sapiens);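 note: fluorescence at 594 nm reports NEIL2 cutting and release of a quenched double-stranded DNA oligo substrate, reduced signal read as inhibition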
- assay_context: Compound Concentration 10.0 uM, Hit No
- Description: Inhibition of NEIL2 by quantifying inhibition of NEIL2-mediated cleavage and dissociation of quenched duplex DNA oligonucleotides, measured as fluorescence at 594 nm.
# output: bare number, implied unit %

CN1C2CCC1CC(OC(c1ccc(F)cc1)c1ccc(F)cc1)C2 (stereo not given); -4.23
CC1(C)CCC[C@]2(C)[C@@H](C=O)C(C=O)=CC[C@@H]12; 8.57
NC(=O)[C@@H]1CCCN1C(=O)[C@H](Cc1c[nH]cn1)NC(=O)[C@@H]1CCC(=O)N1; 12.7
CCO[C@@H](Cc1ccc(OCCc2ccc(OS(C)(=O)=O)cc2)cc1)C(=O)O; -6.87
Cc1nn(C)c2nc(NNC(=O)Nc3cc(Cl)nc(Cl)c3)cc(C(C)C)c12; 7.5

With those in mind, consider the next compound.
q: Form field: reported inhibition of Clc1cccc(COc2cncc(N3CCNCC3)n2)c1
a: 1.26
